B1: Ankyrin repeat and SOCS box protein 14, residues 532 to 572; numbered along this chain, A6NK59 (parent)
chain: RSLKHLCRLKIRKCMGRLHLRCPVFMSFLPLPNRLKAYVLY

Variants of: B1
Assay: abundance fitness (aPCA) (normalised: wild type 0, dead -1); higher = more abundant; growth selection in yeast, the domain comes from the species named
Details: Homo sapiens

RESIDUE_CHANGE: S27C
abundance fitness: -0.536
--
RESIDUE_CHANGE: M15W
abundance fitness: 0.132
--
RESIDUE_CHANGE: P32D
abundance fitness: -0.998
--
RESIDUE_CHANGE: R21F
abundance fitness: -0.102
--
RESIDUE_CHANGE: L31D
abundance fitness: -0.256
--
RESIDUE_CHANGE: H5C
abundance fitness: -0.043
--
RESIDUE_CHANGE: K36V
abundance fitness: -0.051
--
RESIDUE_CHANGE: S27D
abundance fitness: -0.054
--
RESIDUE_CHANGE: R12G
abundance fitness: -0.262
--
RESIDUE_CHANGE: K4Y
abundance fitness: 0.34
--
RESIDUE_CHANGE: K13A
abundance fitness: 0.009
--
RESIDUE_CHANGE: K4L
abundance fitness: 0.157
--
RESIDUE_CHANGE: A37G
abundance fitness: -0.291
--
RESIDUE_CHANGE: F25C
abundance fitness: -0.449
--
RESIDUE_CHANGE: K13W
abundance fitness: -0.166
--
RESIDUE_CHANGE: K4T
abundance fitness: 0.031
--
RESIDUE_CHANGE: P30R
abundance fitness: 0.485
--
RESIDUE_CHANGE: L18S
abundance fitness: -0.735
--
RESIDUE_CHANGE: I11A
abundance fitness: -0.613
--
RESIDUE_CHANGE: R17H
abundance fitness: 0.104
--
RESIDUE_CHANGE: G16C
abundance fitness: -0.269
--
RESIDUE_CHANGE: L3N
abundance fitness: -0.529
--
RESIDUE_CHANGE: L35I
abundance fitness: -0.18
--
RESIDUE_CHANGE: M26W
abundance fitness: 0.118
--
RESIDUE_CHANGE: C7S
abundance fitness: -0.357
--
RESIDUE_CHANGE: L6W
abundance fitness: 0.394
--
RESIDUE_CHANGE: S2C
abundance fitness: -0.572
--
RESIDUE_CHANGE: N33P
abundance fitness: -0.004
--
RESIDUE_CHANGE: C7A
abundance fitness: 0.063
--
RESIDUE_CHANGE: V39W
abundance fitness: -0.43
--
RESIDUE_CHANGE: L31Q
abundance fitness: -0.656
--
RESIDUE_CHANGE: Y38A
abundance fitness: -0.343
--
RESIDUE_CHANGE: K36A
abundance fitness: -0.382
--
RESIDUE_CHANGE: L9V
abundance fitness: -0.22
--
RESIDUE_CHANGE: K4W
abundance fitness: 0.051
--
RESIDUE_CHANGE: L20D
abundance fitness: 0.3
--
RESIDUE_CHANGE: L40Q
abundance fitness: -0.192
--
RESIDUE_CHANGE: R8V
abundance fitness: 0.057
--
RESIDUE_CHANGE: F28T
abundance fitness: -0.237
--
RESIDUE_CHANGE: P32K
abundance fitness: -0.179
--
RESIDUE_CHANGE: L9W
abundance fitness: -0.235
--
RESIDUE_CHANGE: P30E
abundance fitness: 0.4
--
RESIDUE_CHANGE: K13H
abundance fitness: -0.081
--
RESIDUE_CHANGE: S2W
abundance fitness: -0.097
--
RESIDUE_CHANGE: Y38D
abundance fitness: -0.681
--
RESIDUE_CHANGE: R21Q
abundance fitness: -0.623
